test_target: BRAF G466V (Homo sapiens, UniProt P15056, G466V)
Construct: expressed in transfected cells
Sequence (P15056 whole entry G466V): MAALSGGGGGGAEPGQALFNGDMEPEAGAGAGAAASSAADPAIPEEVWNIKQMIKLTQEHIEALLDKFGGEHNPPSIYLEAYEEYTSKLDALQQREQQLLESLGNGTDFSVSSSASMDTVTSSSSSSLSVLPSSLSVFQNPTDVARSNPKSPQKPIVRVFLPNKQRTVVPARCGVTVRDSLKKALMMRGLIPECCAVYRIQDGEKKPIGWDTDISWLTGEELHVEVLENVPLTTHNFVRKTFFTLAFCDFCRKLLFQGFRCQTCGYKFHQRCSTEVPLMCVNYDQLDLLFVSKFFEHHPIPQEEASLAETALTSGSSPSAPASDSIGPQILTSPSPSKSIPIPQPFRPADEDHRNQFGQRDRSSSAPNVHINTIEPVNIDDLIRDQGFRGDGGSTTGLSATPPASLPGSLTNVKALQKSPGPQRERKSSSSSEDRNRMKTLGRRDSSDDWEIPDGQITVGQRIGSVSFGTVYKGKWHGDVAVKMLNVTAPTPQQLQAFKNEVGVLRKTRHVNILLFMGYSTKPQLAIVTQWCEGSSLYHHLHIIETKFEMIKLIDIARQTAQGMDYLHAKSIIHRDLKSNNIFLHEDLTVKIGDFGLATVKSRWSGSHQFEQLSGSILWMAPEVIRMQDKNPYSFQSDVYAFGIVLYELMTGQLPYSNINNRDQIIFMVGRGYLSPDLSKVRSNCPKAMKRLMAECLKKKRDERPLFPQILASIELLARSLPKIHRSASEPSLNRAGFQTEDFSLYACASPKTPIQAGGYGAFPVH
experiment: Cellular assay of target protein degradation, T-Rex 293 cells stably transfected with HA-BRAF G466V (HA immunofluorescence, high content imaging)
Format: cell-based
condition_context: maximum degradation observed, T-Rex 293 HA-BRAF G466V
Below, each entry is listed alongside its reported Dmax.

compound: O=C1CCC(N2Cc3cc(OCCCCN4CCN(c5ccc(-c6cnc7[nH]cc(C(=O)c8c(F)ccc(NS(=O)(=O)N9CC[C@@H](F)C9)c8F)c7c6)cn5)CC4)ccc3C2=O)C(=O)N1 (stereo partly drawn)
test_target: BRAF G466V (Homo sapiens, UniProt P15056, G466V)
endpoint_value: > 70%

Consider the record given below.
Exam item: Supply Dmax measured with BRAF G466V (Homo sapiens, UniProt P15056, G466V) for "O=C1CC[C@H](N2Cc3cc(N4CCC(CN5CCN(C6(c7ccc(-c8cnc9[nH]cc(C(=O)c%10c(F)ccc(NS(=O)(=O)N%11CC[C@@H](F)C%11)c%10F)c9c8)cn7)CC6)CC5)CC4)ccc3C2=O)C(=O)N1" .
Marked response: > 70%
